testedOn: T1, human PVRIG on FlpinCHO-PVRIG cells (human, UniProt Q6DKI7 41-326)
T1 construct: whole, on cells
T1 sequence (looked up): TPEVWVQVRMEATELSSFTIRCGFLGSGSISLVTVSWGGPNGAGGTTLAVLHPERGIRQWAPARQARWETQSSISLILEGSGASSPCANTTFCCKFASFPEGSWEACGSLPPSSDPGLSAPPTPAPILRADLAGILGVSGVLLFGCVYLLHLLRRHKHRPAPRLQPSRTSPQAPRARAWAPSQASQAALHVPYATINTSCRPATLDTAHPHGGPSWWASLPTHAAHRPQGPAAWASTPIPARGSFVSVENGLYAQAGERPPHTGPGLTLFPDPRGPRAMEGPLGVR
measurementNotes: FACS, FlpinCHO-PVRIG cells
measuredMetric: AUC % to SRF813-hIgG1

{"binder": "PVRIG-A118-H6 (Fc fusion, humanized variant of PVRIG-A118; also called A118.VH6; not shown: constant part not restated for the humanized forms; parents are VHH-hinge-CH2-CH3 of human IgG1; detected by anti-human) EVQLVESGGGLVQPGGSLRLSCAASETYFDLYVMGWYRQAPGKDRELVATITYTGSIKIVDSVKGRFTISRGDAKNSLYLQMNSLRAEDTAVYYCNADPSGLGRKVYWGQGTMVTVSS", "result": "180%"}
{"binder": "PVRIG-A105-H1 (Fc fusion, humanized variant of PVRIG-A105; also called A105.VH1; not shown: constant part not restated for the humanized forms; parents are VHH-hinge-CH2-CH3 of human IgG1; detected by anti-human) EVQLVESGGGLVQPGGSLRLSCAASGRTFDRHTMSWFRQAPGKEREFVATASRIPGDTYYVDSVKGRFTISRDNAKNSLYLQMNSLRAEDTAVYYCAATSAYCSEVDCYEKGSWYDNWGQGTMVTVSS", "result": "185%"}
{"binder": "PVRIG-A118-H1 (Fc fusion, humanized variant of PVRIG-A118; also called A118.VH1; not shown: constant part not restated for the humanized forms; parents are VHH-hinge-CH2-CH3 of human IgG1; detected by anti-human) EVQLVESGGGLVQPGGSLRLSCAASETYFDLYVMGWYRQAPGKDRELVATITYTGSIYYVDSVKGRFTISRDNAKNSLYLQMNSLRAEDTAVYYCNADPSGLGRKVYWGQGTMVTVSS", "result": "178%"}
{"binder": "PVRIG-A118-H3 (Fc fusion, humanized variant of PVRIG-A118; also called A118.VH3; not shown: constant part not restated for the humanized forms; parents are VHH-hinge-CH2-CH3 of human IgG1; detected by anti-human) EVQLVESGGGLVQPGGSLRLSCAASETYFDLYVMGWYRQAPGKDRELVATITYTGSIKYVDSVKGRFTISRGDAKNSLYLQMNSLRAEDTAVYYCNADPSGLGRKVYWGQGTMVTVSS", "result": "180%"}
